- assayMethodText: S. cerevisiae growth modulation with rapamycin, primary screen, strain BY4716, OD600, 96 h (AID 1091); also: test concentration not given here
- settings: higher = more signal, called active from +8 up or from −8 down
measuredProperty: z-score
Answer as a number with no unit attached.

Input line: Please give the documented z-score of COCCOC(=O)N1C(=O)[C@@]2(c3cc(C#CCC(C(=O)OC)C(=O)OC)ccc31)[C@H](C(=O)N1CCCCCCC1)[C@H]1C(=O)O[C@H](c3ccccc3)[C@H](c3ccccc3)N1[C@@H]2c1ccccc1OCCO
Output line: 3.51

Input line: Please give the documented z-score of CN(C)CCCC[C@@H]1NC(=O)[C@@H]2C[C@H](C(=O)NCc3ccc(F)cc3)[C@H](c3ccc(O)cc3)N2C1=O
Output line: 0.0709

Input line: Please give the documented z-score of CC(C)C(=C=CC[C@@H](O)c1ccc(OCCO)cc1)CCO
Output line: -1.4

Input line: Please give the documented z-score of CC(=O)c1ccc(C(O)C2C=CC3C(=O)NC(=O)C3N2Nc2ccc(Cl)cc2Cl)cc1 (centres undefined)
Output line: 1.14

----------
- assayMethodText: yeast growth modulation, basal conditions, primary screen, YJM789 clinical isolate, OD600, 24 h (AID 1089);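 also: growth of clinical yeast isolate S. cerevisiae YJM 789 seeded 1000 cells per well; test concentration not given here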
- settings: S. cerevisiae YJM789 growth, higher = more signal, called active from +8 up or from −8 down
Returns 1.0 if the recorded z-score is greater than or equal to 0.1, and 0.0 otherwise.

Input line: Does C=CCC(OC(C)=O)[C@@H]1[C@@H](N(Cc2cc3ccccc3o2)C(=O)c2cccc3ccccc23)c2cc(OCCCO)ccc2N1C(=O)c1ccc2ccccc2c1 (stereo partly specified) have a reported z-score of at least 0.1?
Output line: 0.0

Input line: Does C=C(/C(=C/C[C@H](OC(=O)c1ccncc1)c1ccccc1OCCO)c1cc(C(=O)OC)ccc1OC)C(C)C have a reported z-score of at least 0.1?
Output line: 1.0

Input line: Does COc1ccc([Si](C)(C)[C@@H]2[C@@H](CC(=O)N(CCO)Cc3ccccc3)O[C@]3(C(=O)N(Cc4ccc(N5CCC5=O)cc4)c4ccccc43)[C@H]2C)cc1 have a reported z-score of at least 0.1?
Output line: 1.0

Input line: Does COC(=O)C(CC#Cc1ccc2c(c1)[C@]1(C(=O)N2)[C@H](c2ccc(O)cc2)N2[C@H](c3ccccc3)[C@H](c3ccccc3)OC(=O)[C@H]2[C@@H]1C(=O)N1CCc2cc(OC)c(OC)cc2C1)C(=O)OC have a reported z-score of at least 0.1?
Output line: 1.0

Input line: Does CCOC(=O)C1=CC[C@@H](c2ccccc2)N(S(=O)(=O)C[Si](C)(C)C)[C@H]1c1ccccc1 have a reported z-score of at least 0.1?
Output line: 0.0

Input line: Does CCc1cccc(NC(=O)O[C@H]2[C@H](OC(=O)Nc3ccc4c(c3)OCO4)[C@H](OC(=O)Nc3ccc4c(c3)OCO4)[C@@H](OC)O[C@@H]2CO)c1 have a reported z-score of at least 0.1?
Output line: 1.0

----------
- assayMethodText: small-molecule binders of probe aNOTCH3, primary screen, biochemical, small-molecule microarray, 635/667 nm fluorescence (AID 1120);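 also: probe is a biotin-tagged antibody raised against NOTCH3 rather than NOTCH3 protein; score merges spot fluorescence near 667 nm with spot signal to noise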
- settings: higher = more signal
Returns True if the recorded composite z-score is greater than or equal to 0.09, and False otherwise.

Input line: Does CC(C)N1CC=CC23O[C@@H]4C=CCCOC(=O)C4[C@H]2C(=O)N(CCCCCO)[C@@H]3C1=O (stereo not given in full) have a reported composite z-score of at least 0.09?
Output line: False

Input line: Does N#Cc1ccc(C(O)C2C=CC3C(=O)N(c4ccccc4)C(=O)C3N2Nc2ccc([N+](=O)[O-])cc2)cc1 (stereo not given) have a reported composite z-score of at least 0.09?
Output line: False

Input line: Does C=C(C(=O)CC[C@@H](OC(C)=O)c1cccc(OCCO)c1)C(C)C have a reported composite z-score of at least 0.09?
Output line: False

Input line: Does COC(=O)[C@@]1(Cc2ccccc2)[C@H]2c3cc(C(=O)N4CCCC4)n(Cc4ccc(C(F)(F)F)nc4)c3C[C@H]2CN1C(=O)c1ccccc1 have a reported composite z-score of at least 0.09?
Output line: True

Input line: Does C=C(/C(=C/C[C@@H](OC(C)=O)c1ccccc1OCCO)c1cc(C(=O)OC)ccc1OC)C(C)C have a reported composite z-score of at least 0.09?
Output line: True

Input line: Does CC1(C)OC[C@@]23C=C(Br)[C@@H](C[C@H]12)[C@@]1(CO1)C3=O have a reported composite z-score of at least 0.09?
Output line: False

Input line: Does NC(=O)[C@@]1(CCS(=O)(=O)c2ccccc2)COC(c2ccc(OCCCO)cc2)=N1 have a reported composite z-score of at least 0.09?
Output line: True

Input line: Does C=CCOC(=O)[C@H]1[C@@H]2C(=O)O[C@@H](c3ccccc3)[C@@H](c3ccccc3)N2[C@@H](c2ccc(OCCOC(=O)[C@@H]3C[C@@H]4C(=O)N[C@@H](CC(C)C)C(=O)N4[C@@H]3c3ccc(O)cc3)cc2)[C@]12C(=O)Nc1ccc(I)cc12 have a reported composite z-score of at least 0.09?
Output line: False

Input line: Does C#CCN(C/C=C/c1ccccc1)[C@H](CO[Si](C)(C)C(C)(C)C)c1ccccc1 have a reported composite z-score of at least 0.09?
Output line: False

Input line: Does COC(=O)Cn1c(C(=O)N(C)C)cc2c1C[C@H]1CN(C(=O)c3ccccc3)[C@@](Cc3ccc(OC)cc3)(C(=O)OC)[C@@H]21 have a reported composite z-score of at least 0.09?
Output line: True

Input line: Does [N-]=[N+]=Nc1ccccc1[C@@H]1OC(c2ccc(OCCCO)cc2)=N[C@]1(Cc1ccccc1)C(N)=O have a reported composite z-score of at least 0.09?
Output line: False

Input line: Does C=CCC(OC(C)=O)[C@@H]1[C@@H](N(Cc2cccc3ccccc23)C(=O)c2cccc3ccccc23)c2cc(OCCCO)ccc2N1C(=O)Cc1ccc2ccccc2c1 (stereo not given in full) have a reported composite z-score of at least 0.09?
Output line: False

Input line: Does COc1ccc(NN2C(C(O)c3cc(C(F)(F)F)cc(C(F)(F)F)c3)C=CC3C(=O)N(C4CCCCC4)C(=O)C32)cc1 (stereo not given) have a reported composite z-score of at least 0.09?
Output line: True

Input line: Does CC(C)C(=C=CC[C@@H](O)c1ccc(OCCO)cc1)CCO have a reported composite z-score of at least 0.09?
Output line: False

----------
- assayMethodText: FRG1 promoter luciferase signal modulators, primary screen, FRG1 inhibition for FSHD, cell-based, C2C12 myotubes, firefly/Renilla luciferase, luminescence (AID 1084)
- settings: higher = more signal, called active from +8 up or from −8 down
measuredProperty: z-score
Answer as a number with no unit attached.

Input line: Please give the documented z-score of COCCOC(=O)N1C(=O)[C@@]2(c3cc(C#CCNC(N)=O)ccc31)[C@H](C(=O)NC[C@H](O)c1ccccc1)[C@H]1C(=O)O[C@H](c3ccccc3)[C@H](c3ccccc3)N1[C@@H]2c1ccc(OCCO)cc1
Output line: 0.769

Input line: Please give the documented z-score of O=C1C2C=CC(C(O)C(c3ccccc3)c3ccccc3)N(Nc3ccccc3)C2C(=O)N1c1ccccc1 (centres undefined)
Output line: -0.996

Input line: Please give the documented z-score of C#CCN([C@H](/C=C/C1CC1)[C@@H](O)Cc1ccccc1)[C@@H](Cc1ccccc1)C(=O)OC
Output line: -1.67

Input line: Please give the documented z-score of C=C(CCCC)/C(=C/C[C@H](OC(C)=O)c1cccc(OCCO)c1)c1cc(C(=O)OC)ccc1OC
Output line: -0.502

----------
- targetDesc: Calmodulin-1 (Homo sapiens) (UniProt P0DP23)
- assayMethodText: CALM1 binders on microarrays, EGTA buffer, profiling panel, biochemical, small-molecule microarray, Cy5-labelled CALM1 (AID 1111);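 also: labelled calmodulin applied in Tris saline Tween buffer holding calcium plus EGTA and DTT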
- settings: Cy5-CALM1 binding fluorescence, higher = more signal
Returns 1.0 if the recorded composite z-score is greater than or equal to 0.2, and 0.0 otherwise.

Input line: Does Cc1ccc(S[C@]2(C(=O)NCCN3CCOCC3)CC(=O)N(C3CCCCC3)[C@@H]2c2ccc(CO)cc2I)cc1 have a reported composite z-score of at least 0.2?
Output line: 1.0

Input line: Does CCOC(=O)C1=CCC(c2cc3ccccc3[nH]2)N(S(=O)(=O)c2ccccc2[N+](=O)[O-])C1 (stereo not drawn) have a reported composite z-score of at least 0.2?
Output line: 0.0

Input line: Does CCCCN1CC=CC23O[C@@H]4C=CCOC(=O)[C@@H]4[C@H]2C(=O)N(C(CO)C(C)C)[C@@H]3C1=O (stereo partly drawn) have a reported composite z-score of at least 0.2?
Output line: 0.0

Input line: Does CC(c1ccccc1)C(O)C1C=CC2C(=O)N(c3ccccc3)C(=O)C2N1Nc1ccc(C#N)cc1 (stereo not drawn) have a reported composite z-score of at least 0.2?
Output line: 1.0

Input line: Does CCCC[C@@H]1C[C@H]1[C@@H](NC(=O)Cc1ccccc1)c1ccc(Cl)cc1 have a reported composite z-score of at least 0.2?
Output line: 1.0

Input line: Does CC(C)C[C@@H]1NC(=O)[C@H]2C[C@@H](C(=O)NCCCCCNC(=O)CS)[C@@H](c3ccc(O)cc3)N2C1=O have a reported composite z-score of at least 0.2?
Output line: 1.0

Input line: Does O=C1N(Cc2ccccc2)c2ccccc2[C@H]2OC(c3ccc(OCCCO)cc3)=N[C@@]12Cc1ccccc1 have a reported composite z-score of at least 0.2?
Output line: 1.0

Input line: Does CCN(CC)c1ccc(N2CC=CC34O[C@@H]5C=CCOC(=O)[C@@H]5[C@H]3C(=O)N(CCCO)[C@@H]4C2=O)cc1 (stereo partly drawn) have a reported composite z-score of at least 0.2?
Output line: 0.0
